Recorded values, source paper PMC5773950.

molecular target: human DAT (Homo sapiens, UniProt Q01959); experiment: cell-based
Sequence (Q01959 whole entry): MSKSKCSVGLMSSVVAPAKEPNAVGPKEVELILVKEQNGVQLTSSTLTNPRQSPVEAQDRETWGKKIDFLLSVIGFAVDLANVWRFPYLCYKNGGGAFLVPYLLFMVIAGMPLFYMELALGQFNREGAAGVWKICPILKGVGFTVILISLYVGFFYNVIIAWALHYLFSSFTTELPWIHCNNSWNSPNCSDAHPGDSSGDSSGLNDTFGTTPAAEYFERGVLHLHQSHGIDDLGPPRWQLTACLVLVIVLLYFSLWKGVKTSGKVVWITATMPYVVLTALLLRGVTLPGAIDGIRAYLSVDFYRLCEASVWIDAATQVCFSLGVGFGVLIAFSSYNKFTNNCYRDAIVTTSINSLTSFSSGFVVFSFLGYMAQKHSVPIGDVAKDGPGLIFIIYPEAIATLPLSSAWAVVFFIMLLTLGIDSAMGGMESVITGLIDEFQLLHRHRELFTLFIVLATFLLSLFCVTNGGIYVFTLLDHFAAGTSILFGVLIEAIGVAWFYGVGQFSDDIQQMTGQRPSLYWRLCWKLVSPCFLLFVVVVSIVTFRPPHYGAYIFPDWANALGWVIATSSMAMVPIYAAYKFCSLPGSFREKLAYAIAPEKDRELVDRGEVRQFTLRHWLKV
IC50 for assorted molecules

Please review the following examples before continuing.
COc1ccc2c3c1O[C@H]1C(=O)CC[C@@]4(O)[C@@H](C2)N(C)CC[C@]314 [Oxycodone]	> 100 µM
CC(=O)Oc1ccc2c3c1O[C@H]1[C@@H](OC(C)=O)C=C[C@H]4[C@@H](C2)N(C)CC[C@@]341 [Heroin, diacetylmorphine]	> 100 µM

Now turn to the next molecule.
Entry COc1ccc2c3c1O[C@H]1C(=O)CC[C@H]4[C@@H](C2)N(C)CC[C@]314 [Hydrocodone] needs its IC50 filled in; supply it. > 100 µM

* * *

conditions: human
Parameter WHO database: cases of serotonin syndrome, only suspected cause: see the listing below.
Answer with the value's number alone.

Before answering, review these 6 worked examples.
CNCCC(Oc1ccc(C(F)(F)F)cc1)c1ccccc1 (stereo not shown) [Fluoxetine]	181
CN(C)CCCC1(c2ccc(F)cc2)OCc2cc(C#N)ccc21 (stereo not shown) [Citalopram]	178
CN1CC[C@]23c4c5ccc(O)c4O[C@H]2[C@@H](O)C=C[C@H]3[C@H]1C5 [Morphine]	1
COc1ccc(C(CN(C)C)C2(O)CCCCC2)cc1 (stereo not shown) [Venlafaxine]	240
COc1ccc2c3c1O[C@H]1[C@@H](O)CC[C@H]4[C@@H](C2)N(C)CC[C@@]341 [Dihydrocodeine]	0
CNCC[C@H](Oc1cccc2ccccc12)c1cccs1 [Duloxetine]	550

Answer with reported WHO database: cases of serotonin syndrome, only suspected cause of CC[C@@H](c1cccc(O)c1)[C@@H](C)CN(C)C [Tapentadol] 42

Specify WHO database: cases of serotonin syndrome, only suspected cause for CCOC(=O)C1(c2ccccc2)CCN(C)CC1 [Pethidine] and stop. 6

Answer with the recorded WHO database: cases of serotonin syndrome, only suspected cause for the compound listed here: COc1ccc2c(c1)[C@]13CCCC[C@@H]1[C@H](C2)N(C)CC3 [Dextromethorphan] 7

Recall and state the measured WHO database: cases of serotonin syndrome, only suspected cause for CCC(=O)C(CC(C)N(C)C)(c1ccccc1)c1ccccc1 (stereo not shown) [Methadone] . 2

* * *

target: 5‐HT2A receptor (Homo sapiens, UniProt P28223); test: biochemical; assay type: binding
Sequence (P28223 whole entry): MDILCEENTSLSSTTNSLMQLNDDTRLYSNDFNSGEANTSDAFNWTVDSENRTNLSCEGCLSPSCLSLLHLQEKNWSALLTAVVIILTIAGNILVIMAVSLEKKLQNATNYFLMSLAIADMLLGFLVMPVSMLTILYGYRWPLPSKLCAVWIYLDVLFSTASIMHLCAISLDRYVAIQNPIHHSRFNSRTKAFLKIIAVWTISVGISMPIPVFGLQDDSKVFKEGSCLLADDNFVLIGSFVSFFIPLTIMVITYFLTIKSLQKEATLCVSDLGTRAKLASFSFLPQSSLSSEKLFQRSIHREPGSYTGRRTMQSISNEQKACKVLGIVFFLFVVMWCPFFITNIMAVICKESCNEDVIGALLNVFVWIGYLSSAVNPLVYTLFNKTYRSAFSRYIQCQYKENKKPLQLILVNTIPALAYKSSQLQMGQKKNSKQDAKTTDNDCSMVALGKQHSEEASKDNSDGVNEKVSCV
pKi: −log10 of the molar value.
Each entry below carries its reported pKi.

Sample records with pKi:
CC[C@@H](c1cccc(O)c1)[C@@H](C)CN(C)C	5.20
COc1ccc2c3c1O[C@H]1[C@@H](O)CC[C@H]4[C@@H](C2)N(C)CC[C@@]341 [Dihydrocodeine]	< 4.89

Identify measured pKi associated with CN1CC[C@]23c4c5ccc(O)c4O[C@H]2C(=O)CC[C@@]3(O)[C@H]1C5 < 4.89

* * *

settings: human
Lab note: cut-off is 20. Strictly less in Medline database: number of published cases of serotonin syndrome is 1. Exactly 20 or more is -1.

Known results for molecules:
COc1ccc2c3c1O[C@H]1[C@@H](O)CC[C@H]4[C@@H](C2)N(C)CC[C@@]341 [Dihydrocodeine]	1
COc1ccc2c3c1O[C@H]1C(=O)CC[C@@]4(O)[C@@H](C2)N(C)CC[C@]314	1

Problem: For the molecule COc1cccc(C2(O)CCCCC2CN(C)C)c1 (stereo not drawn) , is Medline database: number of published cases of serotonin syndrome under 20? -1

Would you kindly verify if Medline database: number of published cases of serotonin syndrome of CCOC(=O)C1(c2ccccc2)CCN(C)CC1 is strictly less than 20? 1

State whether 20 exceeds Medline database: number of published cases of serotonin syndrome recorded for CN(C)CCCC1(c2ccc(F)cc2)OCc2cc(C#N)ccc21 (stereo not drawn) . -1

* * *

details: human, in vivo
Marks after values point to notes of the source that are not given here.
Listed here: items and their measured Cu,brain.

# count of solved cases: 3
COc1ccc2c(c1)[C@]13CCCC[C@@H]1[C@H](C2)N(C)CC3 [Dextromethorphan]	0–0.44 ^d μM
CC[C@@H](c1cccc(O)c1)[C@@H](C)CN(C)C [Tapentadol]	0.2–3.5 ^l μM
COc1cccc(C2(O)CCCCC2CN(C)C)c1 (stereo not shown) [Tramadol]	0.1–4.6 ^j μM

Please turn your attention to the following entry.
Complete the entry with Cu,brain for CCOC(=O)C1(c2ccccc2)CCN(C)CC1 [Pethidine] 0.7–5.4 ^h μM

* * *

settings: human
PROPERTY: WHO database: cases of serotonin syndrome, only suspected cause or among others

CCOC(=O)C1(c2ccccc2)CCN(C)CC1	66
COc1ccc2c(c1)[C@]13CCCC[C@@H]1[C@H](C2)N(C)CC3	86
COc1ccc2c3c1O[C@H]1[C@@H](O)CC[C@H]4[C@@H](C2)N(C)CC[C@@]341 [Dihydrocodeine]	4

Fill in WHO database: cases of serotonin syndrome, only suspected cause or among others for record COc1ccc2c3c1O[C@H]1C(=O)CC[C@H]4[C@@H](C2)N(C)CC[C@]314 [Hydrocodone] 6

* * *

Reported pIC50 values are given for each entry in this list.
target: human DAT (Homo sapiens); test: cell-based; details: read-out: DAT IC50 (95% CI)
pIC50: −log10 of the molar value.

CN(C)C[C@H]1CCCC[C@]1(O)c1cccc(O)c1 (relative stereo) [O‐desmethyltramadol, O‐desmethyl‐cis‐tramadol]	< 4.00
CCC(=O)C(C[C@@H](C)N(C)C)(c1ccccc1)c1ccccc1 [l(R)‐methadone]	< 4.00

Lab note: next compound to report on.
Give me measured pIC50, please, for this compound: CCC(=O)C(C[C@H](C)N(C)C)(c1ccccc1)c1ccccc1 [d(S)‐methadone] < 4.00

* * *

settings: human
PROPERTY: Medline database: number of published cases of serotonin syndrome
Kindly provide the number alone.

CC[C@@H](c1cccc(O)c1)[C@@H](C)CN(C)C [Tapentadol]	1

Return reported Medline database: number of published cases of serotonin syndrome. Input compound: COc1ccc2c3c1O[C@H]1[C@@H](O)C=C[C@H]4[C@@H](C2)N(C)CC[C@@]341 [Codeine] 0

Please give the documented Medline database: number of published cases of serotonin syndrome of COc1ccc2c3c1O[C@H]1C(=O)CC[C@H]4[C@@H](C2)N(C)CC[C@]314 [Hydrocodone] 2

Look up and state reported Medline database: number of published cases of serotonin syndrome for CN1CC[C@]23c4c5ccc(O)c4O[C@H]2[C@@H](O)C=C[C@H]3[C@H]1C5 [Morphine] 4

* * *

target: human DAT (Homo sapiens, UniProt Q01959); assay: cell-based
PROPERTY: IC50

Reference set (6 entries):
COc1ccc2c3c1O[C@H]1[C@@H](O)CC[C@H]4[C@@H](C2)N(C)CC[C@@]341 [Dihydrocodeine]	> 100 µM
CC(=O)O[C@H]1C=C[C@H]2[C@H]3Cc4ccc(O)c5c4[C@@]2(CCN3C)[C@H]1O5 [6‐Acetylmorphine, 6‐acetylmorphine]	> 100 µM
CC[C@@H](c1cccc(O)c1)[C@@H](C)CN(C)C [Tapentadol]	78 µM
COc1ccc2c3c1O[C@H]1[C@@H](O)C=C[C@H]4[C@@H](C2)N(C)CC[C@@]341 [Codeine]	> 100 µM
COc1cccc(C2(O)CCCCC2CN(C)C)c1 (centres unmarked) [Tramadol]	100 µM
COc1ccc2c(c1)[C@]13CCCC[C@@H]1[C@H](C2)N(C)CC3 [Dextromethorphan]	> 100 µM

For the molecule CN1CC[C@]23c4c5ccc(O)c4O[C@H]2C(=O)CC[C@@]3(O)[C@H]1C5 [Oxymorphone] , give its measured IC50 value. > 100 µM

Using known records, supply IC50 for CCC(=O)C(CC(C)N(C)C)(c1ccccc1)c1ccccc1 (centres unmarked) [Methadone] > 100 µM

* * *

The reader will find reported Medline database: number of published cases of serotonin syndrome values listed item by item below.
conditions: human

Worked examples, 2 compounds total:
COc1ccc(C(CN(C)C)C2(O)CCCCC2)cc1 (centres unmarked) [Venlafaxine]	75
CCC(=O)C(CC(C)N(C)C)(c1ccccc1)c1ccccc1 (centres unmarked) [Methadone]	3

Please look at this compound and report its Medline database: number of published cases of serotonin syndrome: CNCCC(Oc1ccc(C(F)(F)F)cc1)c1ccccc1 (centres unmarked) [Fluoxetine] 54

Tell me its Medline database: number of published cases of serotonin syndrome given COc1ccc2c(c1)[C@]13CCCC[C@@H]1[C@H](C2)N(C)CC3 [Dextromethorphan] as the entry. 12

Answer with the recorded Medline database: number of published cases of serotonin syndrome of CN1CC[C@]23c4c5ccc(O)c4O[C@H]2C(=O)CC[C@@]3(O)[C@H]1C5 [Oxymorphone] only. 0

* * *

biological target: human SERT (Homo sapiens, UniProt P31645); assay: cell-based; conditions: read-out: SERT IC50 (95% CI)
Sequence (P31645 whole entry): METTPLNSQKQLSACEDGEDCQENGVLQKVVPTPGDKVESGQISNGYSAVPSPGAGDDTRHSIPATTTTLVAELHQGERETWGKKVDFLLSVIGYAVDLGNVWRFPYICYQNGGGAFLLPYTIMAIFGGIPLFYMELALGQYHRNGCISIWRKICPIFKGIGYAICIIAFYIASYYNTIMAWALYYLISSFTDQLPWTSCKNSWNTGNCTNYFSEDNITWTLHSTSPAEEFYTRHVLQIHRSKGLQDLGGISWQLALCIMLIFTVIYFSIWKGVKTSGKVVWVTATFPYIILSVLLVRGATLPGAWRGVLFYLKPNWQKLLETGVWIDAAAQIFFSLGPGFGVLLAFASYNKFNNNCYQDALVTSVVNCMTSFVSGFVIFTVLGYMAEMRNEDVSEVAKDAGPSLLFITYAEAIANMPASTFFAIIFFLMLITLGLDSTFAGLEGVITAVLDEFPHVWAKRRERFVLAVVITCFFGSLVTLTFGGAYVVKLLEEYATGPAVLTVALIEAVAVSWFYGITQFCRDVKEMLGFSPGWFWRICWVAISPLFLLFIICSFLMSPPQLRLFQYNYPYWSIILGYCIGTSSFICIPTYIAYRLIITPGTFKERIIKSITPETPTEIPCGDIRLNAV
PROPERTY: pIC50
Lab note: report pIC50 as minus log10 of the concentration in molar units, number only.

Look up pIC50 of CCC(=O)C(C[C@H](C)N(C)C)(c1ccccc1)c1ccccc1 [d(S)‐methadone] and report it. 5.25

Provide only the value of recorded pIC50 for CCC(=O)C(C[C@@H](C)N(C)C)(c1ccccc1)c1ccccc1 [l(R)‐methadone] 6.55
